log10 IC50 values for the compounds below.
- TESTED TARGET: Gamma-secretase
- TEST NAME: Inhibition of gamma secretase activity in human H4 cells transfected with APP695 mutant assessed as beta amyloid(1-40) production by whole cell assay
- Type: cell-based
Could you please treat all values as log10 of IC50 in nM?

Some entries whose results are on file:
# input Which log10 IC50 value is on record for CCC[C@H](NC(=O)[C@@H](O)c1cc(F)cc(F)c1)C(=O)Nc1ncc(C(CC)CC)s1 ?
# output -0.52

# input Note, next up: CCC[C@H](NC(=O)[C@@H](O)C(C)C)C(=O)Nc1ncc(C(C)CCCC(C)(C)OC)s1 (stereo not given in full)
# output -0.52

# input Moving on to CCC[C@H](NC(=O)Cc1cc(F)cc(F)c1)C(=O)Nc1ncc(CN2CCOCC2)s1
# output 1.10

# input Here is the next compound: CC[C@H](NC(=O)CCc1cc(F)cc(F)c1)C(=O)Nc1ncc([C@H](C)CCCC(C)(C)OC)s1
# output 1.91

# input Would you mind doing CCC[C@H](NC(=O)Cc1cc(F)cc(F)c1)C(=O)Nc1ncc(C(C)NC(C)C)s1 (stereo not given in full) as well?
# output 1.47

# input Would you kindly repeat that for CCC[C@H](NC(=O)[C@@H](O)C(C)(C)C)C(=O)Nc1ncc(C(C)CCCC(C)(C)OC)s1 (stereo not given in full) ?
# output -0.37

# input Same lookup for CCCCNC(C)c1cnc(NC(=O)[C@H](CCC)NC(=O)Cc2cc(F)cc(F)c2)s1 (stereo not given in full) , please.
# output 0.30

# input Same lookup for CCC[C@H](NC(=O)Cc1cc(F)cc(F)c1)C(=O)Nc1ncc(C(C)N2CCCC2)s1 (stereo not given in full) , please.
# output 1.03

---
# input I would be grateful if you could share the reported log10 IC50 for CCC[C@H](NC(=O)[C@@H](O)C(C)(C)C)C(=O)Nc1ncc(C(C)CCCC(C)(C)O)s1 (stereo not given in full) .
# output -0.66

# input Param item: CCC[C@H](NC(=O)Cc1cc(F)cc(F)c1)C(=O)Nc1nc(C)c(C(C)NCC)s1 (stereo not given in full)
# output 1.62

# input Now consider CCC[C@H](NC(=O)Cc1cc(F)cc(F)c1)C(=O)Nc1nc(C)c(CC)s1 and answer again.
# output 1.11

These measurements were taken from ChEMBL document CHEMBL1137444.
